Assay: yeast display, Sf9 membrane polyspecificity reagent, FACS + sequencing; frameworks hold sequencing errors
assay-metric: polyreactivity (PSR sort gate)

>>> result("QVQLVESGGGLVQAGGSLRLSCAASGYIFKYYAMGWYRQAPGKERELVATINYSGGGTYYADSVKGRFTISRDNAKNTVYLQMNRLKPEDTAVYYCAAREKYISYSYYYWGQCTQVTVSS")
"high polyreactivity"
>>> result("QVQLVESGGGLVQAGGSLRLSCAASGLTFNKYAMGWYRQGPGKERELVAAISYRGGSTYYADSVKGRFTISRDNAKNTVYLQMNSLKPEDTAVYYCAVRYWALDDQYRYGSWGQGTQVTVSS")
"high polyreactivity"
>>> result("QVQLVESGGGLVQAGGSLRLSCAASGITFYPNDMGWYRQAPGKERELVAAITTNDGDTYYADSVKGRFTISRDKAKNTVYLQMNSLKPEDTAVYYCAAASGSTSEYEYWGQGTQVTVSS")
"low polyreactivity"
>>> result("QFQLVESGGGLVQAGGSLRLSCAASGSTFGYYAMGWYSQAPGKERELVAAITSTGRTKYADSVKGRFTISRDNAKNSVYLQMNSLKPEDTAVYYCAADIWGQGTQVTVSS")
"high polyreactivity"
>>> result("QVQLVESVGGLVQAGGSLRLSCAASGFTFHGYAMGWYRQAAGKERELVAAIRSGDRTYYADSVKGRFTISRDNAKNTVYLQMNSLKPEDTAVYYCDAGSYFRDSYARIYRWFYYWGQGTQVTVSS")
"low polyreactivity"

----------
Assay: yeast display, Sf9 membrane polyspecificity reagent, FACS + sequencing; frameworks hold sequencing errors
assay-metric: polyreactivity (PSR sort gate)

>>> result("QVQLVESGGGLVQAGGSLRLSCAASGSIFWYNAMGWYRQAPGKERELVARISSSGDSTYYADSVKGRFTISRDNAKNTVYLQINSLKPEDTAVYYCNVDYWSISESSWGYYTSYDYWGQGTQVTVSS")
"high polyreactivity"
>>> result("QVQLVESGGGLVQAGGSLRLTCAASGRTFKSYTMGWYRQAPGKEREFVAAISSRGGNTYYADSVKGRFTISRDNAKNTVYLQMNSLKPEDTAVYYCAAESSYWSFPTYDYWGQGTQVTVSS")
"high polyreactivity"
>>> result("QVQLVESGGGLVQAGGSFRLTCAASGRIFSPNAMGWYRQATGKEREFVAAINDRGGNTYYADSVKGRFTISRDNAKNTVYLQMNSLKPEDTAVYYCAATVTVFYTRYYYWGQGTQVTVSS")
"high polyreactivity"
>>> result("QVQLVESGGGLVQAGGSLRLSCAASGSTFYGYAMGWYRPAPGKERELVAAITIGGRTYYADSVKGRFTISRDNAKNTVYLQMNSLKPEDTAVYYCAAAILRTVPELGSRRTYYYWGQGTQVTVSS")
"high polyreactivity"

----------
Experiment: yeast display, Sf9 membrane polyspecificity reagent, FACS + sequencing; frameworks hold sequencing errors
assay-metric: polyreactivity (PSR sort gate)

>>> result("QVQLVESGGGLVQAGGSLRLSCAASGSIFYSYAMGGYRQAPGKERELVAAITDSGDSTYYADSVKGRFTISRDNAKNTVYLQMNSLKPEDTAVYYCAAGFYPYYYWGQGTQVTVSS")
"low polyreactivity"
>>> result("QVQLVESGGGLVQAGGSLRLSCAASGRIFKGYAMGWYRQAPGKESELVAAITWRGGTTYYADSVKGRFTISRDNAKNTVYLQMNSLKPEDTAVYYCARARPTGYNYWGQGTQVTVSS")
"high polyreactivity"
>>> result("QVQLVESGGGLVQAGGSLRLSCAASGFISPPYAMGWYRQAPGKERELVAAIRSSGGSTYYADSVKGRFTISRDNPKNTVYLQMNSLKPEDTAVYYCNADWIYISSYGWYSYDYWGQGTQVTVSS")
"high polyreactivity"
>>> result("QVQLVESGGGLVQAGGSLRLSCAASGSTFYVNAMGWYRPAPGKERELVAAITKSGGNTYYADSVKGRFTISRDNAKNTVYLQMNSLKPEDTAVYYCAAYKRYSSLTGYESWGQGTQVTVSS")
"high polyreactivity"
>>> result("QVQLVESGGGLVQAGGSLRLTCAASGRTSNGYAMGWYRQAPGNERELVAAYADSVKGRFTISRDNAKNTVYLQMNSLKPEETAVYYCNADYDPVSRVGYVYWAYYYWGQGTQVTVSS")
"low polyreactivity"
>>> result("QVQLVESGGGLVQAGGSLRLSCAASGRTFRTNAMGWYRQEPGKERELVASITWRGDSTYYADSVKGRFTISRDNAKNTVYLQMNRLKPEDTAVYYCAAGGFYWGYLWGRYDYWGQGTQVTVSS")
"high polyreactivity"
>>> result("QVQLVESGGRLVQAGGSLRLSCAASGRTFSAYAMGWYRPAPGKERELVARITSVDSTNYADSVKGRFTISRDNAKNTVYLQMNSPKPEDTAVYYCNATFGYPFVDYDDYWGQGTQVTVSS")
"low polyreactivity"
>>> result("QVQLVESGGGLVQAGGSLRLSCAASGRTFRAYAMGWYRQAPGKERELVAGITSGGSTNYADSVKGRFTISRDNAKNTVYLQMNSLKPEDTAVYYCAAKTHSRTKVYTADYWGQGTQVTVSS")
"high polyreactivity"
>>> result("QVQLVESGGGLVQAGGSLRLSCAASGRTFGFYAMGWYRQAPGKERELVAAITSSGGRTYYADSVKGRFTISRDNAKNTVYLQMNSLKPEDTAVYYCATSGRGKYIRYGYWGQGTQVTVSS")
"high polyreactivity"
>>> result("QVQLVESGGGLVQAGGSLRLSCAASGRIFYVNVMGWYRQAPGKERELVAAIYWSDGSTYYADSVKGRFTISRDNAKNTVYLQMNSLKPEDTAVYYCNRRGPYGYKAWAIGTIGDLDYWGQGTQVTVSS")
"low polyreactivity"
>>> result("QVQLVESGGGLVQAGGSLRLSCAASGFIFWEYAMGWYRQAPGKERELVAAISTSGGSTYYADSVKGRFTISRDNAKNTVYLQMISLKPEDTAVYYCAVDGWDDTYFRQDMDYWGQGTQVTVSS")
"low polyreactivity"
>>> result("QVQLVESGGGLVQAGGSLRLSCAASGVIFYFNALGWYRQAPGKERELVAAISGGDNTYYADSVKGRFTISRDNAKNTVYLQMNSLKPEDTAVYYCAAKYRYGQNGYYLYGYWGQGTQVTVSS")
"low polyreactivity"
>>> result("QVQLVESGGGLVQAGCSLRLSCAASGRTFITNAMGWYRQAPGKVRELVAAISSGTGGRTYYADSVKGRFTISRDKAKNTVYFQMNSRKPEDTAVYYCAARSTKYYPYGYWGQGTQVTVTS")
"high polyreactivity"
>>> result("QVQLVESGGALVQAGGSLRLSCAASGSTLRANAMGWYRQAPGKERELVARITSGGSTYYADSVKGRFTISRDNAKNTVYFQMNSLKPEDTAVYYCAATYKLAYRRGYWGQGTQVTVSS")
"high polyreactivity"
>>> result("QVQLVESGGGLVQAGGSLRLSCAASGSTFKSYVMGWYRQAPGKERELVAAISSGDSTYYADSVKGRFTISRDNAKNTVYLQMNSLKPEDTAVYYCAADPGYTVEPWEDDDWGQGTQVTVSS")
"low polyreactivity"
>>> result("QVQLVESGGGLVQAGGSLRLSCAASGRTFGLYAMGWYRQAPGKERELVAAISSGVSTNYADSVKGRFTISRDNAKNTVYLQMNSLKPEDTAVYYCAAKNYYPRVNYWGQGTQVTVSS")
"high polyreactivity"
>>> result("QVQLVESGGGLVQAGGSLRLSCAASGRIFRPYAMGWYRQAPGKERELVAAITRGGSTKYADSVKGRFTISRDNAKNTVYLQMNSLKPEDTAVYYCAARGWSTGTSYRSAWWDYYYWGQGTQVTVSS")
"high polyreactivity"
>>> result("QVQLVESGGGLVQAGGILRLSCPASGIIFDGNVMGWYRQAPGKEREFVASISISGGSTSYADSVKGRFTISRDNAKNTVYLQMNSLKPEDTAVYYCNTDVGYGRVWRWRYHGDYWGQGTQVTVSS")
"low polyreactivity"
>>> result("QVQLVESGGGLVQAGGSLRLSCAASGRIFVVYAMGWYRQAPGKERELVAAITGGGRTNYADSVKGRFTISRDNAKNTVYLQMNSLKPEDTAVYYCAAGTRSDARRYYYWGQGTQVTVSS")
"low polyreactivity"
>>> result("QVQLVESGGGLVQAGGSLRLSCDASGSTSSKYAMGWYRQAPGKEWQLVATISWRTGSTYYADSVKGRFTISRDNAKNTVYLEMNSLKPEETAVYYCNARVAGRRKYDYWGQGTQVTVSS")
"high polyreactivity"
>>> result("QVQLLESGGGLVQAGGSLRLSCAASGSIFYWNAMGWYIQARGKERELLAAINYSGDSTYDADSVKGAFTISRDNAKNTVYLQMNSLKPEDTAVYYCNFDYWGQGTQVTVSS")
"low polyreactivity"

The reported measurements were obtained from the nanobody polyreactivity screen of Harvey et al. (2022).
